- TARGET OR TEST SYSTEM: Cytochrome P450 2C9 (Homo sapiens)
- Sequence (P11712 whole entry): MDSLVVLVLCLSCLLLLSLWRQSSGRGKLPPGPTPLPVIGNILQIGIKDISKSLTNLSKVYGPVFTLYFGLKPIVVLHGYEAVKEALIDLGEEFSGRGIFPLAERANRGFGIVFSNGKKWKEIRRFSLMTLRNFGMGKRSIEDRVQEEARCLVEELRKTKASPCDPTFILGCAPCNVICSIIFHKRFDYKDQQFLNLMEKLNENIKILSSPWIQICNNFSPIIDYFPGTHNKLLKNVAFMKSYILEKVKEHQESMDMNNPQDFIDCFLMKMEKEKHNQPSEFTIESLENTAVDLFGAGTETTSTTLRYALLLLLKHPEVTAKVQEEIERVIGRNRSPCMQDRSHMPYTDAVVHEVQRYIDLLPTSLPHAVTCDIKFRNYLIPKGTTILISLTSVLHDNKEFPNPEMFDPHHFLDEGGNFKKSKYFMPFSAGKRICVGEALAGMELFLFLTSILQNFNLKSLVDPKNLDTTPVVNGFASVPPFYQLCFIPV
READOUT: pIC50
// pIC50 here means minus log10 of the molar concentration (mol/L)

Entry under test: Cn1c(-c2ccc(-c3cnccn3)cc2Cl)nnc1C1(c2ccc(Cl)cc2)CC(F)C1 (stereo unspecified) . Its pIC50 was 4.59

* * *

- ASSAY TEXT: Blood clearance in C57BL/6 mouse
- Format: ADME, organism-based
Assign clearance to each entry below.
Hi! Could you send only the number? It should be in L/h/kg, unit omitted.

Entry under test: Cn1c(-c2ccc(-c3cnccn3)cc2Cl)nnc1C1(c2ccc(Cl)cc2)CC(F)C1 (configuration not stated) . Its clearance was 0.3

Entry under test: "Cn1c(-c2ccc(-c3cnccn3)cc2)nnc1C1(c2ccc(Cl)cc2)CCC1" . Its clearance was 3.24

* * *

Assign inhibition in vivo at 10 mg/kg to each entry below.
- Test system: Mus musculus
- ASSAY TEXT: Inhibition of 11beta-HSD1 in ICR mouse assessed as conversion of [3H]cortisone to [3H]cortisol at 10 mg/kg, po after 4 hrs by scintillation counting
- Format: functional
Hi! Could you send only the number? It should be in %, unit omitted.

Entry under test: "Cn1c(-c2ccc(C(=O)NC(C)(C)C)cc2)nnc1C1(c2ccc(Cl)cc2)CCC1" . Its inhibition in vivo at 10 mg/kg was 71

Entry under test: "Cn1c(-c2ccc(-c3cnccn3)cc2OC(F)F)nnc1C1(c2ccc(Cl)cc2)CCC1" . Its inhibition in vivo at 10 mg/kg was 88

Entry under test: "Cn1c(-c2ccc(-c3cnccn3)cc2)nnc1C1(c2ccc(Cl)cc2)CCC1" . Its inhibition in vivo at 10 mg/kg was 93

Entry under test: "Cn1c(-c2ccc(-c3cccnc3)cc2F)nnc1C1(c2ccc(Cl)cc2)CCC1" . Its inhibition in vivo at 10 mg/kg was 86

Entry under test: "Cn1c(-c2ccc(NC(=O)c3cnccn3)cc2)nnc1C1(c2ccc(Cl)cc2)CCC1" . Its inhibition in vivo at 10 mg/kg was 67

* * *

- TARGET OR TEST SYSTEM: 11-beta-hydroxysteroid dehydrogenase 1 (Mus musculus)
- Sequence (P50172 whole entry): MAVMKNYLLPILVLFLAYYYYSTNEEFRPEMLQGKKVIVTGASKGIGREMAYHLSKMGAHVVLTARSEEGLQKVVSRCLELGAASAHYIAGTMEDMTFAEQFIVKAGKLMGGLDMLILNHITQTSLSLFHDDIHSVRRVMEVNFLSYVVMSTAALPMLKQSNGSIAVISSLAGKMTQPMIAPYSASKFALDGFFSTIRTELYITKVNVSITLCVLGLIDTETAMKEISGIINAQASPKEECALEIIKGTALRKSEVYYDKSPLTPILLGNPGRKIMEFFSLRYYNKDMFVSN
- ASSAY TEXT: Inhibition of mouse 11beta-HSD1 expressed in CHO-K1 cells assessed as conversion of [3H]cortisone to [3H]cortisol by scintillation counting
Assign IC50 to each entry below.

11-beta-hydroxysteroid dehydrogenase 1 (Mus musculus) IC50 of "Cc1cc(C(=O)Nc2ccc(-c3nnc(C4(c5ccc(Cl)cc5)CCC4)n3C)cc2)c(C)o1" is < 1 nM

11-beta-hydroxysteroid dehydrogenase 1 (Mus musculus) IC50 of "Cn1c(-c2ccc(-c3cnccn3)cc2)nnc1C1(c2ccc(Cl)cc2)CCC1" is < 1 nM

11-beta-hydroxysteroid dehydrogenase 1 (Mus musculus) IC50 of "Cn1c(-c2ccc(-c3ccsc3)cc2)nnc1C1(c2ccc(Cl)cc2)CCC1" is < 1 nM

* * *

- TARGET OR TEST SYSTEM: Nuclear receptor subfamily 1 group I member 2 (Homo sapiens, UniProt O75469)
- Sequence (O75469 whole entry): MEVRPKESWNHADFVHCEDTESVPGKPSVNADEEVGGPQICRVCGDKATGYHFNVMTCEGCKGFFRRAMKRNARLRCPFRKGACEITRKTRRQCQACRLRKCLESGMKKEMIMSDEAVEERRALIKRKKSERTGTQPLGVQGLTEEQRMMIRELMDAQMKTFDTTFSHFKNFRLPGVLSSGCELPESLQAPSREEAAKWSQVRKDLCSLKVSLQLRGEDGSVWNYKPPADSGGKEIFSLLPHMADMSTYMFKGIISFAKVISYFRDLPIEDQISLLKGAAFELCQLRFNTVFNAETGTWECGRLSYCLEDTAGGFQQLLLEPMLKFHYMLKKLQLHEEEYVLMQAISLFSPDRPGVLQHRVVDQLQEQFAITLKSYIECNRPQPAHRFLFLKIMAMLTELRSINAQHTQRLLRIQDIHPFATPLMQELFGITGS
- ASSAY TEXT: Agonist activity at PXR
READOUT: EC50

Entry under test: "CCNC(=O)c1ccc(-c2nnc(C3(c4ccc(Cl)cc4)CCC3)n2C)cc1" . Its EC50 was > 30 µM

Entry under test: "COc1ncc(-c2ccc(-c3nnc(C4(c5ccc(Cl)cc5)CCC4)n3C)cc2)c(OC)n1" . Its EC50 was > 30 µM

Entry under test: "Cn1c(-c2ccc(NC(=O)c3cnccn3)cc2)nnc1C1(c2ccc(Cl)cc2)CCC1" . Its EC50 was > 30 µM

Entry under test: "Cn1c(-c2ccc(-c3cc(=O)[nH]cn3)cc2)nnc1C1(c2ccc(Cl)cc2)CCC1" . Its EC50 was > 30 µM

Entry under test: "Cn1c(-c2ccc(-c3cnccn3)cc2)nnc1C1(c2ccc(Cl)cc2)CCC1" . Its EC50 was > 30 µM

Entry under test: "Clc1ccc(C2(c3nnc4n3CCCCCC4)CCC2)cc1" . Its EC50 was 1.6 µM

Entry under test: Cn1c(-c2ccc(-c3cnccn3)cc2Cl)nnc1C1(c2ccc(Cl)cc2)CC(F)C1 (stereo not given) . Its EC50 was > 30 µM

Entry under test: "Cn1c(-c2ccc(-c3cnccn3)cc2F)nnc1C1(c2ccc(Cl)cc2)CCC1" . Its EC50 was 4.8 µM

Entry under test: "CC(=O)Nc1ccc(-c2nnc(C3(c4ccc(Cl)cc4)CCC3)n2C)cc1" . Its EC50 was > 30 µM

Entry under test: "Cn1c(-c2ccc(C(=O)N3CCOCC3)cc2)nnc1C1(c2ccc(Cl)cc2)CCC1" . Its EC50 was > 30 µM

Entry under test: "Cc1cc(C(=O)Nc2ccc(-c3nnc(C4(c5ccc(Cl)cc5)CCC4)n3C)cc2)c(C)o1" . Its EC50 was > 30 µM

Entry under test: "Cn1c(-c2ccc(-c3cccnc3)cc2O)nnc1C1(c2ccc(Cl)cc2)CCC1" . Its EC50 was > 30 µM

Entry under test: "Cn1c(-c2ccc(C(=O)NC3CCC3)cc2)nnc1C1(c2ccc(Cl)cc2)CCC1" . Its EC50 was > 30 µM

Entry under test: "Cn1c(-c2ccc(C(=O)NC3CC3)cc2)nnc1C1(c2ccc(Cl)cc2)CCC1" . Its EC50 was > 30 µM

Entry under test: "Cn1c(-c2ccc(-c3cnoc3)cc2)nnc1C1(c2ccc(Cl)cc2)CCC1" . Its EC50 was 23 µM

Entry under test: "Cn1c(-c2ccc(-c3ccsc3)cc2)nnc1C1(c2ccc(Cl)cc2)CCC1" . Its EC50 was 3 µM

Entry under test: "Cn1c(-c2ccc(-c3cnccn3)cc2C(N)=O)nnc1C1(c2ccc(Cl)cc2)CCC1" . Its EC50 was > 30 µM

Entry under test: "Cn1c(-c2ccc(-c3cccnc3)cc2F)nnc1C1(c2ccc(Cl)cc2)CCC1" . Its EC50 was > 30 µM

Entry under test: "Cn1c(-c2ccc(C(N)=O)cc2)nnc1C1(c2ccc(Cl)cc2)CCC1" . Its EC50 was > 30 µM

Entry under test: "Cc1noc(C)c1-c1ccc(-c2nnc(C3(c4ccc(Cl)cc4)CCC3)n2C)cc1" . Its EC50 was > 30 µM

Entry under test: "Cn1c(-c2ccc(NC(=O)c3cccs3)cc2)nnc1C1(c2ccc(Cl)cc2)CCC1" . Its EC50 was 8.7 µM

Entry under test: "Cn1c(-c2ccc(-c3cnc(N)nc3)cc2)nnc1C1(c2ccc(Cl)cc2)CCC1" . Its EC50 was > 30 µM

Entry under test: "Cn1c(-c2ccc(C(=O)N3CCCC3)cc2)nnc1C1(c2ccc(Cl)cc2)CCC1" . Its EC50 was > 30 µM

Entry under test: "Cn1c(-c2ccc(N)cc2)nnc1C1(c2ccc(Cl)cc2)CCC1" . Its EC50 was > 30 µM

Entry under test: "Cn1c(-c2ccc(NC(=O)c3cnccn3)cc2Cl)nnc1C1(c2ccc(Cl)cc2)CCC1" . Its EC50 was > 30 µM

Entry under test: "Cn1c(-c2ccc(C(=O)O)cc2)nnc1C1(c2ccc(Cl)cc2)CCC1" . Its EC50 was > 30 µM

Entry under test: "Cn1c(-c2ccc(-c3cncnc3)cc2)nnc1C1(c2ccc(Cl)cc2)CCC1" . Its EC50 was > 30 µM

Entry under test: "Cn1c(-c2ccc(C(=O)N3CCC3)cc2)nnc1C1(c2ccc(Cl)cc2)CCC1" . Its EC50 was > 30 µM

Entry under test: "Cn1c(-c2ccc(-c3cnccn3)cc2OC(F)F)nnc1C1(c2ccc(Cl)cc2)CCC1" . Its EC50 was > 30 µM

Entry under test: "Cn1c(-c2ccc(C(N)=O)cc2C(N)=O)nnc1C1(c2ccc(Cl)cc2)CCC1" . Its EC50 was > 30 µM

Entry under test: "CC(=O)Nc1ccc(-c2nnc(C3(c4ccc(Cl)cc4)CCC3)n2C)c(Cl)c1" . Its EC50 was > 30 µM

Entry under test: "COc1cc(-c2cccnc2)ccc1-c1nnc(C2(c3ccc(Cl)cc3)CCC2)n1C" . Its EC50 was 4.6 µM

Entry under test: "Cn1c(-c2ccc(-c3ccc(Cl)nn3)cc2)nnc1C1(c2ccc(Cl)cc2)CCC1" . Its EC50 was > 30 µM

Entry under test: "Cn1c(-c2ccc(-c3ccccc3)cc2)nnc1C1(c2ccc(Cl)cc2)CCC1" . Its EC50 was 1.7 µM

Entry under test: "Cn1c(-c2ccc(N)cc2Cl)nnc1C1(c2ccc(Cl)cc2)CCC1" . Its EC50 was > 30 µM

Entry under test: "Cn1c(-c2ccc(-c3ccon3)cc2)nnc1C1(c2ccc(Cl)cc2)CCC1" . Its EC50 was > 30 µM

Entry under test: "Cn1c(-c2ccc(C(=O)O)cc2Cl)nnc1C1(c2ccc(Cl)cc2)CCC1" . Its EC50 was 18 µM

Entry under test: "Cn1c(-c2ccc(C(=O)NC(C)(C)C)cc2)nnc1C1(c2ccc(Cl)cc2)CCC1" . Its EC50 was > 30 µM

Entry under test: "Cn1c(-c2ccc(-c3ccc(N)nn3)cc2)nnc1C1(c2ccc(Cl)cc2)CCC1" . Its EC50 was > 30 µM

Entry under test: "Cn1c(-c2ccc(C(N)=O)cc2Cl)nnc1C1(c2ccc(Cl)cc2)CCC1" . Its EC50 was > 30 µM
